B1: Pistol ribozyme (parent)
chain: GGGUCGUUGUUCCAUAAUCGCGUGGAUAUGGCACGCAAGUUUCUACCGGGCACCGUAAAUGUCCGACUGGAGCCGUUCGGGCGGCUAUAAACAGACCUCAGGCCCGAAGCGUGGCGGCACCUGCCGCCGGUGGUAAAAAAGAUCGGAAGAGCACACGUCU

Variants of: B1
TEST METHOD NOTES: aptazyme ON/OFF ratio, guanine; higher = stronger switching; co-transcriptional cleavage with and without guanine
I'd be grateful if you could share measured aptazyme ON/OFF ratio for these entries.
In your answer, state the number alone without any accompanying words.

# aptazyme ON/OFF ratio lookup, item U7A U8G G9C U10G U11A C12A C13G
1.38

Bench note: what aptazyme ON/OFF ratio did U8A G9A U10C C12U show?
1.24

Which aptazyme ON/OFF ratio is reported for this variant? G9U U10G U11G C13U
1.26

Look up aptazyme ON/OFF ratio: U7A U10A U11C C12U
1.03

Request the reported aptazyme ON/OFF ratio associated with U7C U8G G9A U10A C12A C13A
1.17

Name the reported aptazyme ON/OFF ratio value associated with the variant U7G U8A G9U U10C U11A C12G C13A
1.1

Look at this variant and give its reported aptazyme ON/OFF ratio. U7C U8G G9A U10G U11A C13G
1.1

Can you share its aptazyme ON/OFF ratio? I mean this variant: U7G U8A G9U U10C C12A C13G
1.12

Which aptazyme ON/OFF ratio is reported for this variant? U8C G9U U10C U11A C12G C13U
1.08

# query: aptazyme ON/OFF ratio of entry U7C U8A G9U U10A C12A C13U
1.22

Give the measured aptazyme ON/OFF ratio of U7A G9C C12G C13U .
1.05
